EXPERIMENTAL DETAILS: xn = mol fraction of the nth substance listed
STUDY CONDITIONS: 298.15 K; 101 kPa; x2 = 0.8
Respond with 1 (yes) for viscosity values of 2 mPa·s and above, 0 (no) for values below.

[[record]]
molecule = "CN(C)C=O + CO"
label_value = "0 (no)"

[[record]]
molecule = "CN(C)C=O + O"
label_value = "1 (yes)"

[[record]]
molecule = "CN(C)C=O + CCO"
label_value = "0 (no)"

